- Tested on: NCI-H1341 complex spheroids, percent test/control
- Test Summary: Anticancer human tumor NCI-H1341 cell line growth inhibition [AhR];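 also: spheroids exposed to agents for seven days before readout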
- Setup Conditions: curve of first compound; second compound 10 µM
Readout Kind: IC50 (nM)
// note: answer is a bare numeric in nM

{"Molecule": "O=C(C=Cn1cnc(-c2cc(C(F)(F)F)cc(C(F)(F)F)c2)n1)NNc1cnccn1 + CC(CO)NC(=O)c1cc(-c2ccc(Cl)cc2)nn(-c2cnn(C)c2)c1=O", "Scale Unit": "nM", "IC50": 32.2}

(Q) Please report the recorded IC50 for CC1(C)CCC(CN2CCN(c3ccc(C(=O)NS(=O)(=O)c4ccc(NCC5CCOCC5)c([N+](=O)[O-])c4)c(Oc4cnc5[nH]ccc5c4)c3)CC2)=C(c2ccc(Cl)cc2)C1 + CC(CO)NC(=O)c1cc(-c2ccc(Cl)cc2)nn(-c2cnn(C)c2)c1=O .
(A) 1240

(Q) Please report the recorded IC50 for Cn1ncnc1C1c2n[nH]c(=O)c3cc(F)cc(c23)NC1c1ccc(F)cc1 (stereo unspecified) + Cc1ccccc1N=Nc1ccc(NC(=O)c2ccnn2C)c(C)c1 .
(A) 70.1

(Q) Please report the recorded IC50 for Nc1ncn(C2CC(O)C(CO)O2)c(=O)n1 (stereo unspecified) + Cc1ccccc1N=Nc1ccc(NC(=O)c2ccnn2C)c(C)c1 .
(A) 135

(Q) Please report the recorded IC50 for CC1COCCN1c1cc(-c2ccnn2C)c2ccnc(-c3ccn[nH]3)c2n1 (stereo unspecified) + Cc1ccccc1N=Nc1ccc(NC(=O)c2ccnn2C)c(C)c1 .
(A) 9.13

(Q) Please report the recorded IC50 for CC1COCCN1c1cc(C2(S(C)(=N)=O)CC2)nc(-c2ccnc3[nH]ccc23)n1 (stereo unspecified) + CC(CO)NC(=O)c1cc(-c2ccc(Cl)cc2)nn(-c2cnn(C)c2)c1=O .
(A) 956
